The reported numbers originate from paper PMC12040169.

Kindly supply the reported viability at 28.5 h, 10 µM values for the records listed here.
# assay.details: in vitro
# run.parameters: human, hela cells, % viability
One number for each entry, in %.

Provide each entry's viability at 28.5 h, 10 µM from the list below.
1. CCCS(=O)(=O)n1c(=O)n(CC(=O)c2ccccc2OC)c2ccccc21 [CBK106498]
2. C=CCN1C(=O)CC2(C1=O)C(=O)N(C)c1ccccc12 (stereo not drawn) [CBK075472]
3. O=C(NC[C@H]1O[C@@H](CC(=O)N2CCN(c3ccc(F)cc3)CC2)[C@H](O)[C@@H]1O)C1CC1 [CBK288921]

93.1
99
92.7
